- target.entity: HLA-A*03:01 (Homo sapiens, UniProt P04439)
- protocol: HLA-peptide competition binding assay, A*03:01
- condition.parameters: read-out: IC50 nM, target assay A*03:01
Where no end group is shown, it is not given here.
recorded.metric: IC50

Study these solved cases before continuing.
SLQPLALEG [reference compound] :: > 40000 nM
ERGFFYTPK [reference compound] :: > 40000 nM
LVCGERGFFY :: 27400 nM

Which IC50 is reported with HLA-A*03:01 (Homo sapiens, UniProt P04439) for this entry: PLLALLALWG ? > 40000 nM

###

- target.entity: HLA-A*02:01 (Homo sapiens, UniProt P04439, D140Y/D185E/D98H/E176V/E277Q/G131W/G231S/I119V/I121R/I166T/I218V/L300P/L318F/N151K/N90K/P208A/P217A/Q86G/Q94H/R138H/R169H/T345S)
- protocol: HLA-peptide competition binding assay, A*02:01
- condition.parameters: post-translationally modified insulin peptide; competition binding assay; a dash indicates IC50 >40,000 nM; read-out: A*02:01 binding (IC50 nM) Modified
*1 amine or outer side, *2 acyl side, *3 side chain or, on linkers, in order; H or OH if unused. Where a SMILES comes first, the peptide text is derived from it. [ ]: non-standard residue; d: D form. γGlu = O=C(O)[C@H](CCC(=O)[*:2])N[*:1]; βAsp = O=C(O)[C@H](CC(=O)[*:2])N[*:1]; Cya = N[C@@H](CS(=O)(=O)O)C(=O)O; Cit = NC(=O)NCCC[C@H](N)C(=O)O
Answer each item with its documented IC50.

Below are worked cases with known answers.
CC(C)C[C@H](NC(=O)[C@H](Cc1c[nH]cn1)NC(=O)[C@H](CO)NC(=O)CNC(=O)[C@H](CS(=O)(=O)O)NC(=O)[C@H](CC(C)C)NC(=O)[C@@H](N)Cc1c[nH]cn1)C(=O)N[C@H](C(=O)N[C@@H](CCC(=O)O)C(=O)O)C(C)C [HLBGSHLVE] (H-HL[Cya]GSHLVE-OH; N-terminus and C-terminus assumed) :: > 40000 nM
CC(C)C[C@H](NC(=O)[C@H](CC(=O)O)NC(=O)[C@H](CCC(=O)O)NC(=O)[C@H](C)NC(=O)[C@H](CCC(=O)O)NC(=O)[C@H](CCCNC(N)=O)NC(=O)[C@@H](N)CCCNC(N)=O)C(=O)N[C@@H](CCC(N)=O)C(=O)N[C@H](C(=O)O)C(C)C (H-[Cit][Cit]EAEDLQV-OH; N-terminus and C-terminus assumed) :: > 40000 nM
CC[C@H](C)[C@H](NC(=O)CNC(=O)[C@H](CCCNC(N)=O)NC(=O)[C@H](CCCCN)NC(=O)[C@H](CCC(N)=O)NC(=O)[C@H](CC(C)C)NC(=O)[C@@H](N)CO)C(=O)N[C@H](C(=O)N[C@@H](CCC(=O)O)C(=O)N[C@@H](CCC(N)=O)C(=O)O)C(C)C (H-SLQK[Cit]GIVEQ-OH; N-terminus and C-terminus assumed) :: > 40000 nM
CC(C)C[C@H](NC(=O)[C@H](Cc1c[nH]cn1)NC(=O)[C@H](CO)NC(=O)CNC(=O)[C@H](CS)NC(=O)[C@H](CC(C)C)NC(=O)[C@H](Cc1c[nH]cn1)NC(=O)CC[C@H](NC(=O)C[C@H](NC(=O)[C@@H](N)C(C)C)C(=O)O)C(=O)O)C(=O)O [VOZHLCGSHL] (H-V[βAsp][γGlu]HLCGSHL-OH; N-terminus and C-terminus assumed) :: > 40000 nM
CC(C)C[C@H](N)C(=O)N[C@H](C(=O)N[C@@H](CS(=O)(=O)O)C(=O)NCC(=O)N[C@@H](CCC(=O)O)C(=O)N[C@@H](CCCNC(=N)N)C(=O)NCC(=O)N[C@@H](Cc1ccc(O)cc1)C(=O)N[C@@H](Cc1ccc(O)cc1)C(=O)O)C(C)C [LVBGERGYY] (H-LV[Cya]GERGYY-OH; N-terminus and C-terminus assumed) :: > 40000 nM

I'd like to know its IC50. The molecule in question is CC[C@H](C)[C@H](NC(=O)CNC(=O)[C@H](CCCNC(N)=O)NC(=O)[C@H](CCCCN)NC(=O)[C@H](CCC(N)=O)NC(=O)[C@H](CC(C)C)NC(=O)[C@H](CO)NC(=O)CN)C(=O)N[C@H](C(=O)O)C(C)C (H-GSLQK[Cit]GIV-OH; N-terminus and C-terminus assumed) > 40000 nM
